- assay summary: Stability of (7aS,2′S)-2-oxo-clopidogrel in plasma at −80° C., screening of reducing agent type (Example 5)
- Format: in vitro ADME
- test context: plasma, DTT 100 mg/ml, theoretical 12.0 ng/mL, day 0, read-out: Recovery rate
metric: recovery at 0 day, 12 ng/mL (%)
Please state the figure in %; there is no need to write the unit.

Task: Returns the measured recovery at 0 day, 12 ng/mL for the input molecule. Input: COC(=O)[C@H](c1ccccc1Cl)N1CC[C@@H]2SC(=O)C=C2C1
Output: 101

====

- assay summary: Stability of (7aS,2′S)-2-oxo-clopidogrel in plasma, screening of TCEP dosage (Example 4)
- Type: in vitro ADME
- test context: plasma, TCEP 100 mg/ml; theoretical 12.0 ng/mL; on ice; 0 min; read-out: Recovery rate
metric: recovery at 0 min, 12 ng/mL

Task: Need recovery at 0 min, 12 ng/mL, item COC(=O)[C@H](c1ccccc1Cl)N1CC[C@@H]2SC(=O)C=C2C1
Output: 102%

====

- assay summary: Stability of (7aS,2′S)-2-oxo-clopidogrel in plasma at −80° C., screening of reducing agent type (Example 5)
- Format: in vitro ADME
- test context: plasma, DTT 100 mg/ml, theoretical 12.0 ng/mL, day 10, read-out: Recovery rate
metric: recovery at 10 day, 12 ng/mL (%)
Give just the numeric value; % need not be written.

Task: Look up recovery at 10 day, 12 ng/mL: COC(=O)[C@H](c1ccccc1Cl)N1CC[C@@H]2SC(=O)C=C2C1
Output: 100

====

- assay summary: Stability of (7aS,2′S)-2-oxo-clopidogrel in plasma, screening of TCEP dosage (Example 4)
- Format: in vitro ADME
- test context: plasma, TCEP 100 mg/ml; theoretical 12.0 ng/mL; on ice; 30 min; read-out: Recovery rate
metric: recovery at 30 min, 12 ng/mL (%)
Quick reminder: number only, in %, skip the unit.

Task: Record request: recovery at 30 min, 12 ng/mL value, item COC(=O)[C@H](c1ccccc1Cl)N1CC[C@@H]2SC(=O)C=C2C1
Output: 103

====

- assay summary: Stability of (7aS,2′S)-2-oxo-clopidogrel in plasma, screening of TCEP dosage (Example 4)
- Assay type: in vitro ADME
- test context: plasma, TCEP 50 mg/ml; theoretical 12.0 ng/mL; room temperature; 30 min; read-out: Recovery rate
metric: recovery at 30 min, 12 ng/mL (%)
Please give a number only; it is taken to be in %.

Task: Consider the molecule COC(=O)[C@H](c1ccccc1Cl)N1CC[C@@H]2SC(=O)C=C2C1 and give its measured recovery at 30 min, 12 ng/mL.
Output: 101

====

- assay summary: Stability of (7aS,2′S)-2-oxo-clopidogrel in plasma at −80° C., screening of reducing agent type (Example 5)
- Assay type: in vitro ADME
- test context: blank plasma containing ME 100 mg/ml, ME 100 mg/ml, theoretical 12.0 ng/mL, day 0, read-out: Recovery rate
metric: recovery at 0 day, 12 ng/mL (%)
Just the number in %, nothing appended.

Task: GET /values?readout=recovery at 0 day, 12 ng/mL&item= COC(=O)[C@H](c1ccccc1Cl)N1CC[C@@H]2SC(=O)C=C2C1 [(7aS,2′S)-2-oxo-clopidogrel]
Output: 101

====

- assay summary: Stability of (7aS,2′S)-2-oxo-clopidogrel in plasma at −80° C., screening of reducing agent type (Example 5)
- Assay type: in vitro ADME
- test context: plasma, DTT 100 mg/ml, theoretical 0.1 ng/mL, day 60, read-out: Recovery rate
metric: recovery at 60 day, 0.1 ng/mL
Mention the unit after the number when you answer.

Task: Which recovery at 60 day, 0.1 ng/mL is listed for COC(=O)[C@H](c1ccccc1Cl)N1CC[C@@H]2SC(=O)C=C2C1 ?
Output: 89.9%

====

- assay summary: Stability of (7aS,2′S)-2-oxo-clopidogrel in plasma, screening of TCEP dosage (Example 4)
- Assay type: in vitro ADME
- test context: plasma, TCEP 100 mg/ml; theoretical 12.0 ng/mL; room temperature; 0 min; read-out: Recovery rate
metric: recovery at 0 min, 12 ng/mL (%)
Could you give me the number in %? Just the number is fine.

Task: Consider the compound shown here: COC(=O)[C@H](c1ccccc1Cl)N1CC[C@@H]2SC(=O)C=C2C1 What is its recorded recovery at 0 min, 12 ng/mL?
Output: 102

====

- assay summary: Stability of (7aS,2′S)-2-oxo-clopidogrel in plasma, screening of TCEP dosage (Example 4)
- Assay type: in vitro ADME
- test context: plasma, TCEP 50 mg/ml; theoretical 0.1 ng/mL; on ice; 60 min; read-out: Recovery rate
metric: recovery at 60 min, 0.1 ng/mL
Answer with the value and then the unit.

Task: Which recovery at 60 min, 0.1 ng/mL is listed for COC(=O)[C@H](c1ccccc1Cl)N1CC[C@@H]2SC(=O)C=C2C1 [(7aS,2′S)-2-oxo-clopidogrel] ?
Output: 93.2%

====

- assay summary: Stability of (7aS,2′S)-2-oxo-clopidogrel in plasma, screening of TCEP dosage (Example 4)
- Assay type: in vitro ADME
- test context: plasma containing TCEP 10 mg/ml, TCEP 10 mg/ml; theoretical 12.0 ng/mL; on ice; 120 min; read-out: Recovery rate
metric: recovery at 120 min, 12 ng/mL (%)
The figure you give is taken to be in %; do not add the unit.

Task: Please report the recorded recovery at 120 min, 12 ng/mL for COC(=O)[C@H](c1ccccc1Cl)N1CC[C@@H]2SC(=O)C=C2C1 .
Output: 82.7

====

- assay summary: Stability of (7aS,2′S)-2-oxo-clopidogrel in plasma, screening of TCEP dosage (Example 4)
- Format: in vitro ADME
- test context: plasma without TCEP, No TCEP; theoretical 12.0 ng/mL; on ice; 30 min; read-out: Recovery rate
metric: recovery at 30 min, 12 ng/mL (%)
Give the value, in units of %, as a plain number.

Task: Look at this compound and give its reported recovery at 30 min, 12 ng/mL. COC(=O)[C@H](c1ccccc1Cl)N1CC[C@@H]2SC(=O)C=C2C1
Output: 85.8

====

- assay summary: Stability of (7aS,2′S)-2-oxo-clopidogrel in plasma, screening of TCEP dosage (Example 4)
- Type: in vitro ADME
- test context: plasma containing TCEP 50 mg/ml, TCEP 50 mg/ml; theoretical 0.1 ng/mL; room temperature; 0 min; read-out: Recovery rate
metric: recovery at 0 min, 0.1 ng/mL (%)
Give the quantity in %, number only.

Task: // query recovery at 0 min, 0.1 ng/mL value for entry COC(=O)[C@H](c1ccccc1Cl)N1CC[C@@H]2SC(=O)C=C2C1 [(7aS,2′S)-2-oxo-clopidogrel]
Output: 96.5

====

- assay summary: Stability of (7aS,2′S)-2-oxo-clopidogrel in plasma at −80° C., screening of reducing agent type (Example 5)
- Format: in vitro ADME
- test context: blank plasma containing TCEP 100 mg/ml, TCEP 100 mg/ml, theoretical 12.0 ng/mL, day 30, read-out: Recovery rate
metric: recovery at 30 day, 12 ng/mL (%)
Your answer is read as %, so omit the unit and give the number.

Task: Please look up its recovery at 30 day, 12 ng/mL: COC(=O)[C@H](c1ccccc1Cl)N1CC[C@@H]2SC(=O)C=C2C1
Output: 102

====

- assay summary: Stability of (7aS,2′S)-2-oxo-clopidogrel in plasma at −80° C., screening of reducing agent type (Example 5)
- Assay type: in vitro ADME
- test context: blank plasma containing TCEP 100 mg/ml, TCEP 100 mg/ml, theoretical 0.1 ng/mL, day 60, read-out: Recovery rate
metric: recovery at 60 day, 0.1 ng/mL

Task: What value of recovery at 60 day, 0.1 ng/mL has been reported for the following compound? COC(=O)[C@H](c1ccccc1Cl)N1CC[C@@H]2SC(=O)C=C2C1
Output: 101%

====

- assay summary: Stability of (7aS,2′S)-2-oxo-clopidogrel in plasma, screening of TCEP dosage (Example 4)
- Type: in vitro ADME
- test context: plasma, TCEP 50 mg/ml; theoretical 12.0 ng/mL; room temperature; 0 min; read-out: Recovery rate
metric: recovery at 0 min, 12 ng/mL (%)
Your answer should be a plain number; it is taken to be in %.

Task: Look at this compound and give its reported recovery at 0 min, 12 ng/mL. COC(=O)[C@H](c1ccccc1Cl)N1CC[C@@H]2SC(=O)C=C2C1
Output: 102

====

- assay summary: Stability of (7aS,2′S)-2-oxo-clopidogrel in plasma, screening of TCEP dosage (Example 4)
- Format: in vitro ADME
- test context: plasma, TCEP 100 mg/ml; theoretical 0.1 ng/mL; on ice; 0 min; read-out: Recovery rate
metric: recovery at 0 min, 0.1 ng/mL (%)
Kindly provide the numeric value in % only, without the unit symbol.

Task: Endpoint output: recovery at 0 min, 0.1 ng/mL of COC(=O)[C@H](c1ccccc1Cl)N1CC[C@@H]2SC(=O)C=C2C1 [(7aS,2′S)-2-oxo-clopidogrel] . Value?
Output: 96.5
